Just for reference, ChEMBL document CHEMBL1201862 is where these values come from.

Listed here are compounds together with their documented IC50.
Molecular target: 26S proteasome non-ATPase regulatory subunit 14 (Homo sapiens, UniProt O00487)
Sequence (O00487 whole entry): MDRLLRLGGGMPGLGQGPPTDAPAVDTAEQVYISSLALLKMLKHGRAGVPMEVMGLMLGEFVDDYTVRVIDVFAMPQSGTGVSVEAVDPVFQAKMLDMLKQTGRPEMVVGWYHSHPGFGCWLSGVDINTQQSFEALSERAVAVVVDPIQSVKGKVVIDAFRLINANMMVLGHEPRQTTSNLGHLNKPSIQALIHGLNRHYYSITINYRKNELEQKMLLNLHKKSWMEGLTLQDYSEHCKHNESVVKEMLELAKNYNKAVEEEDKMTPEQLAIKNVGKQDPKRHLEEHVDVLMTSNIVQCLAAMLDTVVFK
Experiment: inhibition of proteasome subunit RPN11 – biochemical, fluorescence polarization, uHTS hits, confirmation (AID 602368)
Format: functional
The source made the active and inactive calls. The rule behind the calls is not given here.

For orientation, consider the following solved cases.
smiles-notation	meas-value
COc1ccccc1N1C(=O)S/C(=C\c2ccc(C)s2)C1=O	23.5 µM (active)
O=C(CCN1C(=O)NC2(CCCC2)C1=O)Nc1ccc(-c2nc3ccccc3s2)cc1	19.3 µM (active)
CCN1CCc2c(sc(NC(=O)c3cc4ccccc4cc3OC)c2C(N)=O)C1	26.3 µM (active)
Cc1cccc(NC(=O)CNC(=O)CCc2nc3sc4c(c3c(=O)[nH]2)CCCC4)c1C	7.12 µM (active)

Note down IC50 recorded for `Cc1c2cnn(CC(=O)Nc3c(F)c(F)cc(F)c3F)c(=O)c2c(C)n1Cc1ccccc1F` 19.5 µM (active)
